Molecular target: NADH oxidase (tNOX) of 4T1 cells (Mus musculus, UniProt Q8R0Z2)
Construct: endogenous in cells; host or cells: 4T1 mouse mammary tumor cells
Sequence (Q8R0Z2 1-598): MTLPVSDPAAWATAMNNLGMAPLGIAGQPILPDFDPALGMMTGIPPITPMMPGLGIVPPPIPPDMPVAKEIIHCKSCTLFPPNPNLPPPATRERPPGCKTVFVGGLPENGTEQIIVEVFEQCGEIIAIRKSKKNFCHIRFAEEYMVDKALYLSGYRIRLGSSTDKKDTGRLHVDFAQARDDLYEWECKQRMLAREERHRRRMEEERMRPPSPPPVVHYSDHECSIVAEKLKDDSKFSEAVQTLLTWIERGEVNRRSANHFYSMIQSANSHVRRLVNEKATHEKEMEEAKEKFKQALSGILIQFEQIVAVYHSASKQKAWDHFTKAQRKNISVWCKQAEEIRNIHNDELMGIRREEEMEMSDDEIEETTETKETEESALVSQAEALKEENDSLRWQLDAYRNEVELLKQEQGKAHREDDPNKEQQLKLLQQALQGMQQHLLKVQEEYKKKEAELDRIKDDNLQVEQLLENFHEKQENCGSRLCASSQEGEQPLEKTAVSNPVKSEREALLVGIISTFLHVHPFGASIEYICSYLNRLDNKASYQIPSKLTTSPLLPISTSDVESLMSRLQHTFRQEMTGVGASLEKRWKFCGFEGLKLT
Assay: inhibition of NADH oxidase (tNOX) activity of 4T1 cells
Assay type: biochemical
Conditions: 4T1, 1.5 × 10^6 cells (Table 2); read-out: EC50(M), inhibition of NADH oxidase
Where a name gives a salt, the structure may show the parent alone.
test readout: EC50

[[record]]
compound = "COc1cc(CN)ccc1O [Vanillylamine, hydrochloride]"
test_readout = "EC50"
value_observed = "5e-09 M"

